biological target: SpCas9 (Streptococcus pyogenes serotype M1); experiment: eGFP disruption assay, SpCas9, U2OS.eGFP.PEST cells; format: cell-based; conditions: replicate 2
Sequence (Q99ZW2 whole entry): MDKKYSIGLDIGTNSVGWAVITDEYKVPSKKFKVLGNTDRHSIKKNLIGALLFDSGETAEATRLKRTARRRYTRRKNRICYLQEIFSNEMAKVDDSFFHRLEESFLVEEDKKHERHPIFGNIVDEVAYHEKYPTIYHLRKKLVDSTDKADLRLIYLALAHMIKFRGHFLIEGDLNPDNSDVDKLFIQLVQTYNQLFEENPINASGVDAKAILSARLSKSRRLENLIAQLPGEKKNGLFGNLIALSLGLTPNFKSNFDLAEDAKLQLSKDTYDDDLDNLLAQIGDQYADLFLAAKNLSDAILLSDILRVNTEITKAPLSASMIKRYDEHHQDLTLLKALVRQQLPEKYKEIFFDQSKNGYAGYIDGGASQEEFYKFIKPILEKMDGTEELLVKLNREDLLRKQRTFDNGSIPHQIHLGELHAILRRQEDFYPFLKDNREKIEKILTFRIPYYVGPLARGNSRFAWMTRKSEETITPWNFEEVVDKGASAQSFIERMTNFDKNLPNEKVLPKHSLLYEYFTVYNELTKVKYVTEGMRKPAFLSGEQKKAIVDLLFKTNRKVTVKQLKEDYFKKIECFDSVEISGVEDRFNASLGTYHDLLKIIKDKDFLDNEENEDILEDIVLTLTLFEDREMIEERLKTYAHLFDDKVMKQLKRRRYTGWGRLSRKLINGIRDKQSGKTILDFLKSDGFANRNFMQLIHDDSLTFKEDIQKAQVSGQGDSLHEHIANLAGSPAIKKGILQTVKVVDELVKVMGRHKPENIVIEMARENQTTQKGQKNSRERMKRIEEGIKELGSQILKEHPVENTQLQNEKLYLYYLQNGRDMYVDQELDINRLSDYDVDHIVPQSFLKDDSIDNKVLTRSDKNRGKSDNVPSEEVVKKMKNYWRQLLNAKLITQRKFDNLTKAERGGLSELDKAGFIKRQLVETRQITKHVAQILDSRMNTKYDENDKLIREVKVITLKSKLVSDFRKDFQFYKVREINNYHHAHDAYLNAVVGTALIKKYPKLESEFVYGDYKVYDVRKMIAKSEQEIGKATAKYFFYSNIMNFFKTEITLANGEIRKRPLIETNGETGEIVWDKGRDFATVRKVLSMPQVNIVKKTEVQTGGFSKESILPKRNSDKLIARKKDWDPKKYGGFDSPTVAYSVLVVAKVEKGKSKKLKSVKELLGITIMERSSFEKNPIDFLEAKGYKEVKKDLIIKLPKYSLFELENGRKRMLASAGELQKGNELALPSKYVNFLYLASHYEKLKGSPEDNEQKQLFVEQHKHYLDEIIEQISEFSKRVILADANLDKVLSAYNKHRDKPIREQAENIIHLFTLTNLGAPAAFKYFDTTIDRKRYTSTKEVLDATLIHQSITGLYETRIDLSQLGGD
Param threshold (-1) applies to Z socre Rep2; output True when value >= threshold, False when value < threshold.

CN(C)S(=O)(=O)Nc1ccc(N2CCCC(CN3CCCC3)C2)c(C(=O)O)c1 (stereo not drawn) = False
O=C(CCS(=O)(=O)c1ccccc1)Nc1nc(-c2ccncc2)cs1 = True

Prompt: Z socre Rep2 >= -1 for Fc1ccc(OCc2nn3c(-c4ccccn4)nnc3s2)cc1 ?
Completion: False

Prompt: Can you check N#Cc1[nH]c(=O)n(Cc2ccccc2)c1N next?
Completion: True

Prompt: Can you check CCc1cccc(-n2nnnc2N2CCN(C(=O)Nc3ccc(C)cc3Cl)CC2)c1 next?
Completion: True

Prompt: Can you check CC(C)(C)OC(=O)NCCOc1ccc(S(=O)(=O)CCC(=O)Nc2nc(-c3ccncc3)cs2)cc1 next?
Completion: True

Prompt: Can you check Fc1ccc(-c2nn3c(-c4cnccn4)nnc3s2)cc1Br next?
Completion: False

Prompt: Can you check c1ccc(-c2nnc3sc(-c4ccc5c(c4)OCO5)nn23)nc1 next?
Completion: True

Prompt: Can you check COc1ccc(-c2nnc3sc(-c4cccnc4)nn23)cc1OC next?
Completion: False
